- system-name: MdP2′GT (Malus domestica)
- Construct: gene P2'GT
- Sequence (A0A0X9XIE3 1-483): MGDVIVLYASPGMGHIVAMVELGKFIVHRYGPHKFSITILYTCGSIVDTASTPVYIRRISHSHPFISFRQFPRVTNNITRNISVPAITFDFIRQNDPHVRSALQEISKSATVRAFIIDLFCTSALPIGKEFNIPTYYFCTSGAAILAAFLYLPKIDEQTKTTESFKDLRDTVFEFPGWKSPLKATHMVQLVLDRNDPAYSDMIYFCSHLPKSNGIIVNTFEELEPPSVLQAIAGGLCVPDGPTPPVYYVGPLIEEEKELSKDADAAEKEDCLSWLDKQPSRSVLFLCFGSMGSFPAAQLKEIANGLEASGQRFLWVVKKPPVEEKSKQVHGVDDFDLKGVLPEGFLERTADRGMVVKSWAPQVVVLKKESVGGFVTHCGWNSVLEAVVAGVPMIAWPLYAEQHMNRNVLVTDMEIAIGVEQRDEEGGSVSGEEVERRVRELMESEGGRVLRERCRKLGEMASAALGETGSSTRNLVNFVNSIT
- assay-name: Inhibition of phloridzin formation by purified MdP2′GT from 270 uM UDPG and 20 uM phloretin, 50 mM Tris/HCl pH 7.5, 5 mM DTT, 30 °C, 30 min, product quantified by HPLC-DAD.
- Type: biochemical
observed-property: pIC50
# log scale: pIC50 equals minus log10 of the concentration in mol/L

The molecule identified as O=C(O)c1cc[c]([Hg+])cc1 [p-hydroxymercuribenzoate, p-hydroxymercuribenzoate (PHMB)] registered its pIC50 at 3.62

====

- system-name: MdP2′GT (Malus domestica, UniProt A0A0X9XIE3)
- assay-name: Effects of metal ions and other compounds on purified MdP2′GT activity
- Type: biochemical, Malus x domestica
- study-conditions: addition at 5 mM; compared to a control in which none is added
Please note: Relative activity exactly at 40% is 0.0. Only values below 40% get 1.0.

Ask: Regarding O=c1ccn([C@@H]2O[C@H](COP(=O)(O)O)[C@@H](O)[C@H]2O)c(=O)[nH]1 [UMP, uridine monophosphate] , kindly confirm whether its Relative activity is beneath 40%.
Reply: 1.0

Ask: Regarding `[Ca+2].[Cl-].[Cl-]` , kindly confirm whether its Relative activity is beneath 40%.
Reply: 0.0

Ask: Regarding O=C(CCc1ccc(O)c(O)c1)c1c(O)cc(O)cc1O[C@@H]1O[C@H](CO)[C@@H](O)[C@H](O)[C@H]1O [3-hydroxyphloridzin, 3-hydroxyphloridzin] , kindly confirm whether its Relative activity is beneath 40%.
Reply: 1.0

Ask: Regarding `O=S(=O)([O-])[O-].[Fe+2]` , kindly confirm whether its Relative activity is beneath 40%.
Reply: 0.0

Ask: Regarding `O=C(CCc1ccc(O)cc1)c1c(O)cc(O[C@@H]2O[C@H](CO)[C@@H](O)[C@H](O)[C@H]2O)cc1O` , kindly confirm whether its Relative activity is beneath 40%.
Reply: 1.0

Ask: Regarding `[Cl][Ni][Cl]` , kindly confirm whether its Relative activity is beneath 40%.
Reply: 0.0

Ask: Regarding `OCCS` , kindly confirm whether its Relative activity is beneath 40%.
Reply: 0.0

Ask: Regarding `[Cl-].[K+]` , kindly confirm whether its Relative activity is beneath 40%.
Reply: 0.0

Ask: Regarding `[Cl][Al]([Cl])[Cl]` , kindly confirm whether its Relative activity is beneath 40%.
Reply: 0.0
